Substrate: C[C@H](CCC(=O)O)[C@H]1CC[C@H]2[C@@H]3C(=O)C[C@@H]4CC(=O)CC[C@]4(C)[C@H]3CC(=O)[C@]12C
Test: purified protein, by the assay type
Details: other: Table 14, substrate DHCA; tag N; apparent values; pH 8.0
quantity: Km
Please answer using a numeric value trailed by its unit.

// known answers, use as guide
>  <protein>
Comamonas testosteroni 3α-HSDH mutant [T188A], N-terminal hexahistidine tag (Comamonas testosteroni; T188A) (protein) MSIIVISGCATGIGAATRKVLEAAGHQIVGIDIRDAEVIADLSTAEGRKQAIADVLAKCSKGMDGLVLCAGLGPQTKVLGNVVSVNYFGATELMDAFLPALKKGHQPAAVVISSVASAHLAFDKNPLALALEAGEEAKARAIVEHAGEQGGNLAYAGSKNALTVAVRKRAAAWGEAGVRLNTIAPGAAETPLLQAGLQDPRYGESIAKFVPPMGRRAEPSEMASVIAFLMSPAASYVHGAQIVIDGGIDAVMRPTQF

>  <Km>
94.5 ± 11 µM

$$$$
>  <protein>
Comamonas testosteroni 3α-HSDH dual mutant [L68A/T188A], N-terminal hexahistidine tag (Comamonas testosteroni; L68A/T188A) (protein) MSIIVISGCATGIGAATRKVLEAAGHQIVGIDIRDAEVIADLSTAEGRKQAIADVLAKCSKGMDGLVACAGLGPQTKVLGNVVSVNYFGATELMDAFLPALKKGHQPAAVVISSVASAHLAFDKNPLALALEAGEEAKARAIVEHAGEQGGNLAYAGSKNALTVAVRKRAAAWGEAGVRLNTIAPGAAETPLLQAGLQDPRYGESIAKFVPPMGRRAEPSEMASVIAFLMSPAASYVHGAQIVIDGGIDAVMRPTQF

>  <Km>
164.4 ± 20.4 µM

$$$$

Consider the additional protein presented here.
Comamonas testosteroni 3α-HSDH dual mutant [L68A/T188S], N-terminal hexahistidine tag (Comamonas testosteroni; L68A/T188S) (protein) MSIIVISGCATGIGAATRKVLEAAGHQIVGIDIRDAEVIADLSTAEGRKQAIADVLAKCSKGMDGLVACAGLGPQTKVLGNVVSVNYFGATELMDAFLPALKKGHQPAAVVISSVASAHLAFDKNPLALALEAGEEAKARAIVEHAGEQGGNLAYAGSKNALTVAVRKRAAAWGEAGVRLNTIAPGASETPLLQAGLQDPRYGESIAKFVPPMGRRAEPSEMASVIAFLMSPAASYVHGAQIVIDGGIDAVMRPTQF yielded Km of 169.6 ± 22.6 µM
